The reported measurements were obtained from paper PMC9352680.

Below, each entry is listed with its recorded Kd.
Target: T1, PUF4 RNA-binding domain (Saccharomyces cerevisiae, UniProt P25339 537-888)
T1 sequence: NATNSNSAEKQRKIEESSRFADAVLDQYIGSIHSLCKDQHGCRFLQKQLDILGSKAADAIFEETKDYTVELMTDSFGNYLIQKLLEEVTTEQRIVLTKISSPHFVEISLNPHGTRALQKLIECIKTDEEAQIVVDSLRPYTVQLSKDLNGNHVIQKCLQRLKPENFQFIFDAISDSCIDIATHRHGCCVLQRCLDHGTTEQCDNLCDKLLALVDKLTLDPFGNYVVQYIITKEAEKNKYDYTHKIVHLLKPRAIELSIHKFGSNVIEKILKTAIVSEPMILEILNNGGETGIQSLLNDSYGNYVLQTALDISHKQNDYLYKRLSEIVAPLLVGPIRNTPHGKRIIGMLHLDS
Experiment: Mg; RNA-MaP; 20 mM Na-HEPES pH 7.4, 30 mM KOAc, 0.75 mM MgCl2, 0.1% Tween-20, 5% glycerol, 0.1 mg/mL BSA, 2 mM DTT; 25 C; 0.0125-409.6 nM protein
Conditions: tags: N-His6-TEV cleaved; C-SNAP kept, Cy3B-labelled; label: tethered on chip by stalled RNA polymerase

Solved cases (5 shown):
Query string: Kd for UCUCUUUGUAAAACUUCUCUU (ssRNA) [Ic_S1_P4E.1_K4.1_C4.1_H4.1_A4.1_[T5A]_[T7A]_F4.1_[T8C]_[A9T]_T4.1] ?
Result string: 106 nM

Query string: Kd for Ic_S4_P4E.1_K4.1_C4.1_H4.1_A4.1_[T5C]_[A6G]_F4.1_[T8C]_[A9C]_T4.1 (ssRNA) RNA: UUUGACAACUGAUCGUUCUUUCUUGUACGUCCUUCUUUCUCGAUCAGUUGUCUUU ?
Result string: 35 nM

Query string: Kd for Ie_S4_P3E.2_K3.1_C3.2_[+-2CCC]_H3.1_A3.1_F3.1_T3.2 (ssRNA) RNA: UUUGACAACUGAUCGUUCUUUCUCCCCUUGUAUAUAUAUUCUUUCUCGAUCAGUUGUCUUU ?
Result string: 0.858 nM

Query string: Kd for Id_ii_S4_P5E.4_K5.3_C5.2_[C-2A]_[T-1C]_H5.3_A5.1_F5.1_T5.2_[A12G] (ssRNA) RNA: UUUGACAACUGAUCGUUCUUUCUACACACUUAUUAUGUUCUUUCUCGAUCAGUUGUCUUU ?
Result string: > 2300 nM

Query string: Kd for Ib_S4_P5E.1_K5.1_C5.1_H5.1_[T1C]_A5.1_[T5G]_F5.1_T5.1 (ssRNA) RNA: UUUGACAACUGAUCGUUCUUUCUCGUAGUAUUAUUCUUUCUCGAUCAGUUGUCUUU ?
Result string: > 2300 nM

Let's switch to this binder now.
Query string: Kd for Id_ii_S2_P5E.2_K5.1_C5.2_[T-1A]_H5.1_A5.1_F5.1_T5.2_[T11A]_[A12G] (ssRNA) RNA: UUUGAUUAAUAUGAUAUCGUUCUUUCUCAUGUAUUAUUAAGUUCUUUCUCGAUAUCAUAUUAAUCUUU ?
Result string: 26.7 nM
